recorded-endpoint: melting point

1. CCOC(=O)c1ccc(N=C(Nc2ccc(C(=O)OCC)cc2)c2ccccc2OC)cc1; 163 to 164 °C
2. CCOC(=O)CCCCC(NS(=O)(=O)c1ccc(F)cc1)c1ccc2ccccc2c1 (stereo not given); 91 to 93 °C
3. O=C1Nc2ccccc2C1C1CCN(CC(O)C2COc3ccccc3O2)CC1 (stereo not given); 115 to 120 °C
4. C[C@]1(CN2CCC(OCCCc3ccc(Cl)cc3)CC2)Cn2cc([N+](=O)[O-])nc2O1; 88.8 to 91.9 °C
5. Cc1nc2c3c(ccn2c1C)C(=O)C(O)C(c1ccccc1)N3 (stereo not given); 232 to 234 °C

* * *

Listing: melting point of selected compounds
recorded-endpoint: melting point

1. CSc1ccc2ncc(N)c(-c3ccccc3)c2c1; 135 to 137 °C
2. O=C(Cc1cccc2ccccc12)Nc1cc([C@H]2C[C@@H](NC(=O)c3ccc4ccccc4n3)C2)[nH]n1; 200 °C
3. COc1ccc(-c2nn(C(C)C)c3c(C(F)(F)F)cccc23)c(OC)c1; 128 to 129 °C
4. COc1ccc2c(-c3ccccc3)c(C(=O)c3ccccc3OC)sc2c1; 111 to 112 °C
5. CC(C)Cn1c(=O)n(C)c(=O)c2c(SCCO)n(Cc3cccc4ccccc34)cc21; 138 to 141 °C

* * *

recorded-endpoint: melting point

1) COC(=O)c1ccc(COC2CC(n3cc(F)c(=O)[nH]c3=O)OC2CO)cc1 (stereo not given); 169 to 170 °C
2) Cc1oc(-c2ccccc2)nc1COc1cccc(CSc2cccc(C(=O)O)c2)c1; 129 to 130 °C
3) CC(=O)N1CC(CCN2CCC(c3c[nH]c4cc(Cl)ccc34)CC2)c2ccccc21 (stereo not given); 188 to 190 °C
4) Cn1cc(C2=C(c3cn(CO)c4ccccc34)C(=O)NC2=O)c2ccc([N+](=O)[O-])cc21; 210 to 213 °C
5) OC1(c2ccc(Br)cc2)CCN(CCCc2noc3cc(F)ccc23)CC1; 138 to 145 °C
6) O=C1CCc2cc(Oc3ccccc3)ccc21; 92 to 93 °C
7) COC(=O)c1cccc(C(=O)c2[nH]c3cc(Cl)ccc3c2N)c1; 187 to 189 °C
8) CCCCCCn1c(=O)c2cn(CC)nc2n(C)c1=O; 107 to 108 °C
9) CCC1(CC)Oc2ccc(C#N)cc2[C@@H](OC2=CC(=O)CC2)[C@@H]1O (relative stereo); 166 to 170 °C
10) Oc1nc2ccc3c(c2nc1O)CCCC3; > 300 °C

* * *

Listing: melting point of selected compounds
recorded-endpoint: melting point

1. O=c1ccc2nc3ccc(F)cc3sc-2c1Cl; 250 to 255 °C
2. CCCC(=O)Nc1cc(Oc2ccccc2)ccc1NC(=NC(=O)OCC)SC; 118 °C
3. CCn1nc(C)c2c1C(=O)Nc1ccccc1N2C(=O)CN1CCN(C)CC1; 145 to 146 °C
4. Cc1cc(C)cc(C(=O)Cc2ccncc2)c1; 90 to 91 °C
5. CC(=O)OCc1cn2c(n1)CN=C(c1ccccc1F)c1cc(Cl)ccc1-2; 134 to 136 °C
6. O=C1c2ccccc2C(=O)N1CCN1CCC(c2noc3cc(F)ccc23)CC1; 143 to 145 °C
7. CN1C(=O)[C@@H](CN2CCCCC2)C[C@H]1c1ccc(Br)s1; 69 to 71 °C
8. COC(=S)NC[C@H]1CN(c2ccc(-c3nc(Cn4cncn4)cs3)c(F)c2)C(=O)O1; 189 to 191 °C
9. CCCc1nc2c(N)nc(C)c(C)c2n1CCCS(=O)(=O)c1ccc(C(=O)OCC)cc1; 169 to 171 °C
10. COC(=O)CCCCc1ccc(O)c(CCC(=O)OC)n1; 92 to 95 °C
